- System: Rattus norvegicus
- procedure-summary: Cmax in rat at 3 mg/kg, po
- Assay type: ADME, organism-based
- Parameters: dose 3 mg/kg, route oral
- assay-context: in vivo
result-type: Cmax (nM)
Answers are plain numbers, in nM.

Ask: Recall and state the measured Cmax for O=C(NCc1ccccc1)[C@@H]1CCC[C@H]1C(O)CCc1ccc(OC(F)(F)F)cc1 (stereo in doubt; 13B) .
Result: 2300

###

- Test system: Rattus norvegicus
- procedure-summary: AUC in rat at 3 mg/kg, po
- Format: ADME, organism-based, Plasma
- Set-up: dose 3 mg/kg, route oral
- assay-context: in vivo
result-type: AUC (µM·h)
Answers are plain numbers, in µM·h.

O=C(NCc1ccccc1)[C@@H]1CCC[C@H]1C(O)CCc1ccc(OC(F)(F)F)cc1 (stereo in doubt; 13B) : 9

Okay, next one:
Ask: Recall and state the measured AUC for O=C(NCc1ccccc1)[C@@H]1CCC[C@H]1C(O)CCc1ccc(OC(F)(F)F)cc1 (stereo in doubt; 13) .
Result: 5.3
